settings: in n-propyl acetate, 288.13 K
measurementKind: solubility (mole fraction)

Reported solubility (mole fraction), compound CS(N)(=O)=O : ____
0.0125

---

settings: in n-propanol, 308.24 K
measurementKind: solubility (mole fraction)

Reported solubility (mole fraction), compound CS(N)(=O)=O : ____
0.0375

---

details: in methanol, 298 K
measurementKind: solubility (mole fraction)

Reported solubility (mole fraction), compound CS(N)(=O)=O : ____
0.133

---

conditions: in n-butanol, 298.16 K
measurementKind: solubility (mole fraction)

Reported solubility (mole fraction), molecule CS(N)(=O)=O : ____
0.0172

---

details: in n-butanol, 288.2 K
measurementKind: solubility (mole fraction)

Reported solubility (mole fraction), compound CS(N)(=O)=O : ____
0.0131

---

conditions: in isobutanol, 313.04 K
measurementKind: solubility (mole fraction)
Reply briefly: the number, and no unit.

Reported solubility (mole fraction), molecule CS(N)(=O)=O : ____
0.0384

---

conditions: in sec-butanol, 298.06 K
measurementKind: solubility (mole fraction)
Reply briefly: the number, and no unit.

Reported solubility (mole fraction), compound CS(N)(=O)=O : ____
0.0224

---

conditions: in isopropanol, 308.14 K
measurementKind: solubility (mole fraction)
Reply briefly: the number, and no unit.

Reported solubility (mole fraction), compound CS(N)(=O)=O : ____
0.044

---

details: in n-propyl acetate, 308.04 K
measurementKind: solubility (mole fraction)
Reply briefly: the number, and no unit.

Reported solubility (mole fraction), compound CS(N)(=O)=O : ____
0.0214

---

details: in n-propyl acetate, 318.07 K
measurementKind: solubility (mole fraction)
Reply briefly: the number, and no unit.

Reported solubility (mole fraction), compound CS(N)(=O)=O : ____
0.028

---

details: in sec-butanol, 288.14 K
measurementKind: solubility (mole fraction)
Reply briefly: the number, and no unit.

Reported solubility (mole fraction), molecule CS(N)(=O)=O : ____
0.0112

---

conditions: in ethanol, 313.06 K
measurementKind: solubility (mole fraction)

Reported solubility (mole fraction), molecule CS(N)(=O)=O : ____
0.1

---

details: in isobutanol, 318.16 K
measurementKind: solubility (mole fraction)
Reply briefly: the number, and no unit.

Reported solubility (mole fraction), molecule CS(N)(=O)=O : ____
0.0481

---

conditions: in n-propyl acetate, 313 K
measurementKind: solubility (mole fraction)
Reply briefly: the number, and no unit.

Reported solubility (mole fraction), molecule CS(N)(=O)=O : ____
0.0243

---

conditions: in n-propyl acetate, 298.04 K
measurementKind: solubility (mole fraction)
Reply briefly: the number, and no unit.

Reported solubility (mole fraction), compound CS(N)(=O)=O : ____
0.0163

---

conditions: in n-propyl acetate, 303.14 K
measurementKind: solubility (mole fraction)

Reported solubility (mole fraction), molecule CS(N)(=O)=O : ____
0.0185

---

details: in isopropyl acetate, 308.1 K
measurementKind: solubility (mole fraction)
Reply briefly: the number, and no unit.

Reported solubility (mole fraction), molecule CS(N)(=O)=O : ____
0.0195

---

details: in n-propanol, 323.24 K
measurementKind: solubility (mole fraction)

Reported solubility (mole fraction), molecule CS(N)(=O)=O : ____
0.08

---

details: in n-propyl acetate, 283.07 K
measurementKind: solubility (mole fraction)
Reply briefly: the number, and no unit.

Reported solubility (mole fraction), molecule CS(N)(=O)=O : ____
0.0114
